// reported IC50 per item
Test system: ApoB secretion, HepG2 cells
test name: Quantification of the secretion of ApoB (HepG2 cells, immunoprecipitation, scintillation counting)
Format: cell-based
condition notes: Homo sapiens, HepG2, 24 h, 24 hours of incubation
Numeric answer only, unit nM assumed.

Worked cases, answers included:
COC(=O)C(c1ccccc1)N1CCN(c2ccc(NC(=O)c3cc(OC)c(OC)cc3-c3ccc(C(F)(F)F)cc3)cc2)CC1 (centres unmarked)    235
O=C(Nc1ccc(N2CCC(C(C(=O)NCc3ccccc3)c3ccccc3)CC2)cc1)c1ccccc1-c1ccc(F)cc1 (centres unmarked)    18.5
O=C(Nc1ccc(N2CCC(C(C(=O)NCc3ccccc3)c3ccccc3)CC2)cc1)c1ccccc1-c1cc(Cl)cc(Cl)c1 (centres unmarked)    93.8

Ask: Consider the compound CCNC(=O)C(c1ccccc1)N1CCN(c2ccc(NC(=O)c3cc(C)ccc3-c3ccc(C(F)(F)F)cc3)cc2)CC1 (centres unmarked) and give its measured IC50.
Result: 73.1

Ask: Consider the compound COC(=O)C(c1ccccc1)N1CCC(c2ccc(NC(=O)c3ccccc3-c3ccccc3)cc2)CC1 (centres unmarked) and give its measured IC50.
Result: 234

Ask: Consider the compound COC(=O)C(c1ccccc1)N1CCN(c2cc(F)c(NC(=O)c3ccccc3-c3ccc(C(F)(F)F)cc3)c(F)c2)CC1 (centres unmarked) and give its measured IC50.
Result: 428

Ask: Consider the compound CCNC(=O)C(c1ccccc1)C1CCN(c2ccc(NC(=O)c3ccccc3-c3cccc4ccccc34)cc2)CC1 (centres unmarked) and give its measured IC50.
Result: 65.3

Ask: Consider the compound CCCNC(=O)C(c1ccccc1)C1CCN(c2ccc(NC(=O)c3ccccc3C(=O)c3ccccc3)cc2)CC1 (centres unmarked) and give its measured IC50.
Result: 205

Ask: Consider the compound CCCCNC(=O)C(CN1CCN(c2ccc(NC(=O)c3ccccc3-c3ccc(C(F)(F)F)cc3)cc2)CC1)c1ccccc1 (centres unmarked) and give its measured IC50.
Result: 159

Ask: Consider the compound O=C(Nc1ccc(N2CCC(C(C(=O)Nc3ccccc3)c3ccccc3)CC2)cc1)c1ccccc1-c1cc(Cl)cc(Cl)c1 (centres unmarked) and give its measured IC50.
Result: 251

Ask: Consider the compound CCNC(=O)C(c1ccccc1)N1CCN(c2ccc(NC(=O)c3ccccc3-c3ccccc3)cc2)CC1 (centres unmarked) and give its measured IC50.
Result: 86.1

Ask: Consider the compound COC(=O)C(c1ccccc1)N1CCN(c2ccc(NC(=O)c3ccccc3-c3ccc(C(F)(F)F)cc3)cc2C(F)(F)F)CC1 (centres unmarked) and give its measured IC50.
Result: 483

Ask: Consider the compound Cc1ccc(-c2ccccc2C(=O)Nc2ccc(N3CCC(C(C(=O)NCc4ccccc4)c4ccccc4)CC3)cc2)cc1 (centres unmarked) and give its measured IC50.
Result: 7.94

Ask: Consider the compound O=C(Nc1ccc(N2CCC(C(C(=O)Nc3ccccc3)c3ccccc3)CC2)cc1)c1ccccc1-c1ccccc1Cl (centres unmarked) and give its measured IC50.
Result: 1710

Ask: Consider the compound CCCNC(=O)C(c1ccccc1)C1CCN(c2ccc(NC(=O)c3ccccc3-c3ccc(F)cc3)cc2)CC1 (centres unmarked) and give its measured IC50.
Result: 1040

Ask: Consider the compound O=C(Nc1ccc(N2CCC(C(C(=O)NCc3ccccc3)c3ccc(F)cc3)CC2)cc1)c1ccccc1-c1ccc(C(F)(F)F)cc1 (centres unmarked) and give its measured IC50.
Result: 28.8

Ask: Consider the compound CC(C)NC(=O)C(c1ccccc1)C1CCN(c2ccc(NC(=O)c3ccccc3Oc3ccccc3)cc2)CC1 (centres unmarked) and give its measured IC50.
Result: 1300

Ask: Consider the compound C=CCNC(=O)C(c1ccccc1)N1CCC(c2ccc(NC(=O)c3ccccc3-c3ccccc3)cc2)CC1 (centres unmarked) and give its measured IC50.
Result: 250

Ask: Consider the compound CCCNC(=O)C(CN1CCN(c2ccc(NC(=O)c3ccccc3-c3ccc(C(F)(F)F)cc3)cc2)CC1)c1ccccc1 (centres unmarked) and give its measured IC50.
Result: 122

Ask: Consider the compound O=C(Nc1ccc(N2CCC(C(C(=O)NCc3ccccc3)c3ccccc3)CC2)cc1)c1ccccc1OCc1ccccc1 (centres unmarked) and give its measured IC50.
Result: 60.1

###

// reported melting point per item
Numeric answer only, unit °C assumed.

COC(=O)C(c1ccccc1)N1CCC(c2ccc(NC(=O)c3ccccc3-c3ccc(C(F)(F)F)cc3)cc2)CC1 (single isomer, unassigned) [Co. No. 229]    158
CCOC(=O)C(CN1CCN(c2ccc(NC(=O)c3ccccc3-c3ccc(C(F)(F)F)cc3)cc2)CC1)c1ccccc1 (stereo not drawn)    195

Ask: Consider the compound O=C(Nc1ccc(N2CCN(C(C(=O)NCC(F)(F)F)c3ccccc3)CC2)cc1)c1ccccc1-c1ccc(C(F)(F)F)cc1 (stereo not drawn) and give its measured melting point.
Result: 208

###

// reported log10 IC50 per item
Test system: ApoB secretion, HepG2 cells
test name: Quantification of the secretion of ApoB (HepG2 cells, immunoprecipitation, scintillation counting)
Type: cell-based
condition notes: Homo sapiens, HepG2, 24 h, 24 hours of incubation
Procedure: C.1. Quantification of the Secretion of ApoB HepG2 cells were cultured in 24-well plates in Minimal Essential Medium Rega 3 containing 10% fetal calf serum. […] At 70% confluency, the medium was changed and the test compound or carrier (dimethylsulfoxide, 0.4% final concentration) was added. […] Radioactivity in the pellet was quantified by liquid scintillation counting. […]
Reminder: these figures are log10 of reported IC50, in nM before transformation.

Ask: Consider the molecule COC(=O)C(c1ccc(Cl)cc1)N1CCN(c2ccc(NC(=O)c3ccccc3-c3ccc(C(F)(F)F)cc3)cc2)CC1 (stereo not shown) and give its measured log10 IC50.
Result: 2.45

###

Tested on: ApoB secretion, HepG2 cells
test name: Quantification of the secretion of ApoB (HepG2 cells, immunoprecipitation, scintillation counting)
Assay type: cell-based
condition notes: Homo sapiens, HepG2, 24 h, 24 hours of incubation
test readout: IC50

Worked cases, answers included:
COC(=O)C(c1ccccc1)N1CCN(c2ccc(NC(=O)c3ccc(F)cc3-c3ccc(C(F)(F)F)cc3)cc2)CC1 (stereo not shown)    48.8 nM
COC(=O)C(c1ccccc1)C1CCN(c2ccc(NC(=O)c3cccc(C)c3-c3ccc(C(C)(C)C)cc3)cc2)CC1 (stereo not shown)    < 30 nM
CC(C)NC(=O)C(c1ccccc1)C1CCN(c2ccc(NC(=O)c3ccccc3OCc3ccccc3)cc2)CC1 (stereo not shown)    275 nM

Let us move to another entry and its IC50.
Ask: Consider the molecule CCNC(=O)C(c1ccccc1)N1CCC(c2ccc(NC(=O)c3ccccc3-c3ccccc3)cc2)CC1 (stereo not shown) and give its measured IC50.
Result: 41.7 nM

###

Tested on: ApoB secretion, HepG2 cells
test name: Quantification of the secretion of ApoB (HepG2 cells, immunoprecipitation, scintillation counting)
Assay type: cell-based
condition notes: Homo sapiens, HepG2, 24 h, 24 hours of incubation
Note to self: use 1 (yes) only for IC50 readings below 0.03 µM; a reading exactly at 0.03 µM still gets 0 (no).

O=C(Nc1ccc(N2CCC(C(C(=O)Oc3ccccc3)c3ccccc3)CC2)cc1)c1ccccc1-c1ccccc1 (stereo not shown) [Co. No. 178]    0 (no)
CCNC(=O)C(c1ccccc1)N1CCN(c2ccc(NC(=O)c3c(C)cccc3-c3ccc(C(F)(F)F)cc3)cc2)CC1 (stereo not shown) [Co. No. 197]    1 (yes)
O=C(Nc1ccc(N2CCC(C(C(=O)Nc3ccccc3)c3ccccc3)CC2)cc1)c1ccccc1-c1ccccc1 (stereo not shown) [Co. No. 30]    0 (no)
CCNC(=O)C(c1ccc(F)cc1)C1CCN(c2ccc(NC(=O)c3ccccc3-c3ccc(C(F)(F)F)cc3)cc2)CC1 (stereo not shown) [Co. No. 256]    1 (yes)
O=C(Nc1ccc(N2CCN(C(C(=O)Nc3ccccc3)c3ccccc3)CC2)cc1)c1ccccc1-c1ccccc1 (stereo not shown) [Co. No. 145]    0 (no)
O=C(Nc1ccc(N2CCC(C(C(=O)NCc3ccccc3)c3ccccc3)CC2)cc1)c1ccccc1-c1cccc2ccccc12 (stereo not shown) [Co. No. 136]    0 (no)

As a next step, examine the compound that follows.
Ask: Hi there! Is IC50 for COC(=O)C(c1ccccc1)N1CCN(c2ccc(NC(=O)c3ccccc3-c3ccc(C(F)(F)F)cc3)cc2C)CC1 (stereo not shown) [Co. No. 211] below 0.03 µM, do you know?
Result: 1 (yes)

###

Test system: ApoB secretion, HepG2 cells
test name: Quantification of the secretion of ApoB (HepG2 cells, immunoprecipitation, scintillation counting)
Assay type: cell-based
condition notes: Homo sapiens, HepG2, 24 h, 24 hours of incubation
// reported pIC50 per item
Scale: negative log10 of molar concentration, which is what pIC50 denotes.

Worked cases, answers included:
C=CCOC(=O)C(c1ccccc1)N1CCN(c2ccc(NC(=O)c3ccccc3-c3ccccc3)cc2)CC1 (stereo not drawn)    6.47
O=C(Nc1ccc(N2CCC(C(C(=O)Nc3ccccc3)c3ccccc3)CC2)cc1)c1ccccc1-c1ccc(F)cc1 (stereo not drawn)    6.08
CC(C)(C)c1ccc(-c2ccccc2C(=O)Nc2ccc(N3CCC(C(C(=O)NCc4ccccc4)c4ccccc4)CC3)cc2)cc1 (stereo not drawn)    8.74
O=C(Nc1ccc(C2CCN(C(C(=O)OCc3ccccc3)c3ccccc3)CC2)cc1)c1ccccc1-c1ccc(C(F)(F)F)cc1 (stereo not drawn)    6.21
CCCNC(=O)C(c1ccccc1)C1CCN(c2ccc(NC(=O)c3ccccc3-c3cccc(Cl)c3)cc2)CC1 (stereo not drawn)    7.01
CC(C)(C)c1ccc(-c2ccccc2C(=O)Nc2ccc(N3CCC(C(C(=O)NCc4ccccc4)c4ccc(F)cc4)CC3)cc2)cc1 (stereo not drawn)    8.30
COC(=O)C(c1ccccc1)C1CCN(c2ccc(NC(=O)c3ccccc3-c3ccccc3)cc2)CC1 (stereo not drawn)    6.97
O=C(Nc1ccc(C2CCN(C(C(=O)Nc3ccccc3)c3ccccc3)CC2)cc1)c1ccccc1-c1ccccc1 (stereo not drawn)    7.01
CCCNC(=O)C(c1ccccc1)C1CCN(c2ccc(NC(=O)c3ccccc3-c3ccc4ccccc4c3)cc2)CC1 (stereo not drawn)    6.70

Let us move to another entry and its pIC50.
Ask: Consider the compound COC(=O)C(c1ccccc1)N1CCN(c2cc(C)c(NC(=O)c3ccccc3-c3ccc(C(F)(F)F)cc3)c(C)c2)CC1 (stereo not drawn) and give its measured pIC50.
Result: 8.10
